Provenance of the data: paper PMC10397247

interaction score values by entry
# tested_on: T1, 4H349-bH
# T1 chain: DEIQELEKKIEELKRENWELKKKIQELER
# measurement_protocol: two-hybrid library CCNG1;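 note: natural log of median RNA to DNA barcode read ratio; higher means stronger binding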

binder: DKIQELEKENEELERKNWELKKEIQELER [4H2233-bH]
interaction score: 0.0715
//
binder: DEIQELEKENEELKRKIWELKKENQELER [4H235-bH]
interaction score: 0.108
//
binder: DEIQELEKKIEELEREIWELEKKNQELKR [4H264-bH]
interaction score: 0.113
//
binder: DKIQELEKEIEELKRKNWELEKEIQELKR [4H2162-bH]
interaction score: 0.54
//
binder: DKNQELEKKIEELERKIWELEKENQELKR [4H3364-bH]
interaction score: -0.118
//
binder: DEIQELEKKIEELKRENWELKKKIQELER [4H349-bH]
interaction score: 0.275
//
binder: DKNQELEKKIEELERKNWELEKKIQELER [4H3381-bH]
interaction score: -1.42
//
binder: DKIQELEKKNEELEREIWELKKENQELKR [4H2444-bH]
interaction score: -0.694
//
binder: DKIQELKKENEELKREIWELEKKNQELKR [4H2760-bH]
interaction score: 0.171
//
binder: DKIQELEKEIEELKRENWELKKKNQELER [4H2143-bH]
interaction score: -0.148
//
binder: DKIQELEKENEELKREIWELKKKIQELER [4H2253-bH]
interaction score: -0.0717
//
binder: DKNQELEKENEELKRKIWELEKEIQELER [4H3297-bH]
interaction score: -0.0353
//
binder: DKIQELKKEIEELERENWELKKEIQELER [4H2585-bH]
interaction score: 1.63
//
binder: DKIQELKKKIEELERKIWELKKENQELER [4H2859-bH]
interaction score: -0.11
